- SYSTEM: Human TRPA1 (Homo sapiens)
- EXPERIMENT: Assay 1: In vitro cellular testing of TRPA1 modulation (CHO-TREx, Fluo-3 calcium fluorescence, AITC agonist)
- Assay type: cell-based
- Parameters: expressed in transfected cells; host or cells: CHO-TREx cells (Invitrogen), vector pcDNA4/TO
- SETTINGS: CHO-TREx cells expressing human TRPA1; Fluo-3 fluorescence (FLIPR/Tetra); agonist 15 μM allyl isothiocyanate (AITC); 30 minute antagonist incubation
pIC50: −log10 of the molar value.
ASSAY_METRIC: pIC50

CC1CCCN1c1cc(CNC(=O)[C@@H]2CC(F)(F)CN2S(=O)(=O)c2ccc(Cl)s2)cc(-c2ccc(C(F)(F)F)cc2)n1 (stereo partly drawn) [Example 397]
5.53
C[C@@H](NC(=O)[C@@H]1CCCN1S(=O)(=O)c1ccc(Cl)s1)c1cccc(-c2ccc(C(F)(F)F)cc2)c1 [Example 116]
6.41

I = O=C(NCc1cc(-c2ccc(OC(F)(F)F)cc2)ccn1)[C@@H]1CCCN1S(=O)(=O)c1ccc(F)cc1 [Example 137]
II = CC(NC(=O)[C@@H]1CCCN1S(=O)(=O)c1ccc(F)cc1)c1cc(-c2ccc(C(F)(F)F)cc2)ncn1 (single isomer, unassigned) [Example 182]
III = O=C(NCc1ccnc(-c2ccc(OC(F)(F)F)cc2)c1)[C@@H]1CC(F)(F)CN1S(=O)(=O)c1ccc(F)cc1 [Example 131]
IV = O=C(NCc1cc(NCc2ccncc2)nc(-c2ccc(C(F)(F)F)cc2)c1)[C@@H]1CCCN1S(=O)(=O)c1ccc(Cl)s1 [Example 364]
Put the entries in order of pIC50, starting with the largest number. Output the labels ranked as instructed.
I, III, II, IV

----------
- SYSTEM: Human TRPA1 (Homo sapiens)
- EXPERIMENT: Alternative TRPA1 Ca2+ fluorometry assay (hTRPA1/TREx-HEK293 cells, Fluo-4, FDSS 6000)
- Type: cell-based
- Parameters: expressed in transfected cells
- SETTINGS: Fluo-4-AM, agonist 6,11-dihydro-5H-dibenzo[b,e]azepine-10-carboxylic acid methyl ester 25 nM, procedure used for Examples 184, 190 to 192, 194 to 316
pIC50: −log10 of the molar value.
ASSAY_METRIC: pIC50

C#CCNc1nc(CNC(=O)[C@@H]2CCCN2S(=O)(=O)c2ccc(F)cc2)cc(-c2ccc3c(c2)OCO3)n1 [Example 200]
5.48
COc1cccc(OC)c1-c1cc(CNC(=O)[C@@H]2CCCN2S(=O)(=O)c2ccc(F)cc2)nc(N2CCN(c3ccccc3F)CC2)n1 [Example 228]
5.64

----------
- SYSTEM: Human TRPA1 (Homo sapiens, UniProt O75762)
- Sequence (O75762 whole entry): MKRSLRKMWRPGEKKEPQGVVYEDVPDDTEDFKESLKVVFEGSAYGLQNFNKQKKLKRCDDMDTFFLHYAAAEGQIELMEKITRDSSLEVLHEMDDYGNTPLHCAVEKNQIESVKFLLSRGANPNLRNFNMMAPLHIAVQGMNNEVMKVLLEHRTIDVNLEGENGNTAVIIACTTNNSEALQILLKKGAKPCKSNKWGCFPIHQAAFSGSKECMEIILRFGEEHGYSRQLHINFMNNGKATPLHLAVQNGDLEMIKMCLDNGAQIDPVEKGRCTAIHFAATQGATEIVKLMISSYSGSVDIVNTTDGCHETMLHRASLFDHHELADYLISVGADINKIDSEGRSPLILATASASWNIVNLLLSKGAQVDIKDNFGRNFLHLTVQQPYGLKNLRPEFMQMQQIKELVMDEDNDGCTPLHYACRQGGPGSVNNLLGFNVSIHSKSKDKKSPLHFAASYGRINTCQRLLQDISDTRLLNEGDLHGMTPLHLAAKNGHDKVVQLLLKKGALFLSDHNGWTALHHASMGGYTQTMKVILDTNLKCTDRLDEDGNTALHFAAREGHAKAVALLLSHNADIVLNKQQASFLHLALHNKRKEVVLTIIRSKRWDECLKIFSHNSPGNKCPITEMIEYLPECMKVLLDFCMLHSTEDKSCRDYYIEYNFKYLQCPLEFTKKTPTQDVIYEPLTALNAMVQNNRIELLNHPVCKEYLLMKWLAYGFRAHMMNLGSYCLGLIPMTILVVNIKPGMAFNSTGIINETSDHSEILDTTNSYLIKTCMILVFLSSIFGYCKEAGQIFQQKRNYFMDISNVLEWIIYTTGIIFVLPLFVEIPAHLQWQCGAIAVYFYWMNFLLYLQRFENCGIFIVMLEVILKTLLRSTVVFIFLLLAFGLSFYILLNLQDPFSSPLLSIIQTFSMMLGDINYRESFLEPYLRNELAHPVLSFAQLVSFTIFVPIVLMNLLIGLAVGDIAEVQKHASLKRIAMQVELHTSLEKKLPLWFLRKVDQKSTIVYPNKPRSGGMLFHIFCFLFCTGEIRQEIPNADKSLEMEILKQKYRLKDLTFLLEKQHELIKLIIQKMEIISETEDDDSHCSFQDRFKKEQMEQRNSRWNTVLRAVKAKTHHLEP
- EXPERIMENT: Assay 1: In vitro cellular testing of TRPA1 modulation (CHO-TREx, Fluo-3 calcium fluorescence, AITC agonist)
- Assay type: cell-based
- Design: expressed in transfected cells; host or cells: CHO-TREx cells (Invitrogen), vector pcDNA4/TO
- SETTINGS: CHO-TREx cells expressing human TRPA1; Fluo-3 fluorescence (FLIPR/Tetra); agonist 15 μM allyl isothiocyanate (AITC); 30 minute antagonist incubation
ASSAY_METRIC: IC50 (µM)

I = CC(C)(NC(=O)[C@@H]1CCCN1S(=O)(=O)c1ccc(Cl)s1)c1cccc(-c2ccc(C(F)(F)F)cc2)c1
II = O=C(NCc1cc(-c2ccc(C(F)(F)F)cc2)nc(N2CCN(Cc3ccncc3)CC2)c1)[C@@H]1CC(F)(F)CN1S(=O)(=O)c1ccc(Cl)s1
III = COc1nc(CNC(=O)[C@@H]2CCCN2S(=O)(=O)c2ccc(F)cc2)cc(-c2ccc(C(F)(F)F)cc2)n1
IV = O=C(NCc1cccc(-c2ccc(C(F)(F)F)cc2)c1)[C@@H]1C[C@@H](O)CN1S(=O)(=O)c1ccc(F)cc1
Sort the listed compounds above so the one with the largest IC50 comes first and the smallest comes last. Output the labels ranked as instructed.
I, II, IV, III

A = O=C(NCc1cc(-c2ccc(C(F)(F)F)cc2)nc(N2CCN(Cc3ccncc3)CC2)c1)[C@@H]1CCCN1S(=O)(=O)c1ccc(F)cc1
B = O=C(NCc1cc(-c2ccc(C(F)(F)F)cc2)nc(N2CCN(Cc3cccnc3)CC2)c1)[C@@H]1CCCN1S(=O)(=O)c1ccc(F)cc1
C = O=C(NCc1cc(-c2ccc(C(F)(F)F)cc2)nc(N2CCN(Cc3ccccn3)CC2)c1)[C@@H]1C=CCN1S(=O)(=O)c1ccc(F)cc1
D = C[C@@H]1CCCN1c1nc(CNC(=O)[C@@H]2CCCN2S(=O)(=O)c2ccc(Cl)s2)cc(-c2ccc(C(F)(F)F)cc2)n1
Put the entries in order of IC50, starting with the largest number. Output the labels ranked as instructed.
C, B, A, D
(C: 2.75 µM, B: 0.682 µM, A: 0.296 µM, D: 0.013 µM)

a = O=C(NCc1cccc(-c2ccc(C(F)(F)F)cc2)c1)[C@@H]1[C@H]2C[C@H]2CN1S(=O)(=O)c1ccc(F)cc1
b = CN(C)c1ccc(-c2cccc(CNC(=O)[C@@H]3CCCN3S(=O)(=O)c3ccc(F)cc3)c2)cc1
Parameter metric = IC50. Return the lower-valued option from a and b . Identify your pick by its label.
b
(b: 0.086 µM, a: 0.319 µM)

P = O=C(NCc1cccc(-c2ccc(N3CCCCC3)cc2)c1)[C@@H]1CCCN1S(=O)(=O)c1ccc(F)cc1
Q = O=C(NCc1cc(-c2ccc(C(F)(F)F)cc2)ncn1)[C@@H]1CCCN1S(=O)(=O)c1ccc(Cl)s1
R = O=C(NCc1cc(NCc2ccccn2)nc(-c2ccc(C(F)(F)F)cc2)c1)[C@@H]1C=CCN1S(=O)(=O)c1ccc(Cl)s1
Put the entries in order of IC50, starting with the largest number. Output the labels ranked as instructed.
R, P, Q

P = O=C(NCc1cc(-c2ccc(C(F)(F)F)cc2)ncn1)[C@@H]1CCCN1S(=O)(=O)c1cccc(F)c1
Q = O=C(NCc1cccc(-c2ccc(OC(F)(F)F)cc2)c1)[C@@H]1CCCN1S(=O)(=O)c1ccc(F)cc1
Parameter metric = IC50. Return the lower-valued option from P and Q . Identify your pick by its label.
Q

P = CC(Nc1cc(CNC(=O)[C@@H]2CCCN2S(=O)(=O)c2ccc(F)cc2)cc(-c2ccc(C(F)(F)F)cc2)n1)c1cccnc1 (some centres unmarked)
Q = O=C(NCc1cccc(-c2ccc(C(F)(F)F)cn2)c1)[C@@H]1CCCN1S(=O)(=O)c1ccc(F)cc1
R = O=C(NCc1cc(-c2ccc(C(F)(F)F)cc2)nc(N2CCN(Cc3ccccc3)CC2)c1)[C@@H]1CC(F)(F)CN1S(=O)(=O)c1ccc(Cl)s1
S = CN(C)c1nc(CNC(=O)[C@@H]2CCCN2S(=O)(=O)c2ccc(F)cc2)cc(-c2ccc(C(F)(F)F)cc2)n1
T = CC(C)(O)CNc1nc(CNC(=O)[C@@H]2CCCN2S(=O)(=O)c2ccc(Cl)s2)cc(-c2ccc(C(F)(F)F)cc2)n1
// ascending sort on recorded IC50 Output the labels ranked as instructed.
Q, S, T, P, R
(Q: 0.017 µM, S: 0.03 µM, T: 0.747 µM, P: 1.69 µM, R: 4.71 µM)

A = O=C(NCc1cc(-c2ccc(C(F)(F)F)cc2)ncn1)[C@@H]1CCCN1S(=O)(=O)c1cccs1
B = CC(C)C1CCCN1c1nc(CNC(=O)[C@@H]2CCCN2S(=O)(=O)c2ccc(Cl)s2)cc(-c2ccc(C(F)(F)F)cc2)n1 (some centres unmarked)
Parameter metric = IC50. Return the lower-valued option from A and B . Identify your pick by its label.
B
(B: 0.012 µM, A: 0.02 µM)

1 = CN(C)[C@@H]1CCN(c2nc(CNC(=O)[C@@H]3CCCN3S(=O)(=O)c3ccc(Cl)s3)cc(-c3ccc(C(F)(F)F)cc3)n2)C1
2 = O=C(NCc1cccc(-c2ccc(C(F)(F)F)c(F)c2)c1)[C@@H]1CCCN1S(=O)(=O)c1ccc(F)cc1
3 = NC(=O)c1ccc(-c2cccc(CNC(=O)[C@@H]3CCCN3S(=O)(=O)c3ccc(F)cc3)c2)cc1
Put the entries in order of IC50, starting with the largest number. Output the labels ranked as instructed.
3, 1, 2
(3: 14.1 µM, 1: 1.02 µM, 2: 0.014 µM)
